Provenance of the data: ChEMBL document CHEMBL1156941

study_target: Acetyl-CoA carboxylase 2 (Homo sapiens)
test_name: Inhibition of human recombinant ACC2 expressed in CHO cells after 1 hr by fluorescence reader
observed_property: IC50 (nM)

> print(dat)
                              line.notation  unit.abbreviation  test.result
1  Cc1cc2c(cc1C)C(=O)CC1(CCN(C(=O)c3cc(C)c4[nH]ncc4c3)CC1)O2                 nM           48

[I] CCc1cc(C(=O)N2CCC3(CC2)CC(=O)c2c(OC)cccc2O3)cc2cn[nH]c12
[II] Cc1n[nH]c2c(C)cc(C(=O)N3CCC4(CC3)CC(=O)c3c(ccnc3OC(C)C)O4)cc12
Query string: Please let me know which one, I or II , has a lower measured IC50 value. # answer = label of selected item
Result string: II

[P] Cc1n[nH]c2ccc(C(=O)N3CCC4(CC3)CC(=O)c3ncccc3O4)cc12
[Q] COc1cccc2c1C(=O)CC1(CCN(C(=O)c3ccc4nc(-c5ccccc5)[nH]c4c3)CC1)O2
Query string: Param pair: P , Q . Output: the one whose IC50 is numerically greater. # answer = label of selected item
Result string: P
(P: 640 nM, Q: 16 nM)

[a] COc1cccc2c1C(=O)CC1(CCN(C(=O)c3ccc4nc[nH]c4c3)CC1)O2
[b] COc1cccc2c1C(=O)CC1(CCN(C(=O)c3ccc4nn[nH]c4c3)CC1)O2
[c] COc1cccc2c1C(=O)CC1(CCN(C(=O)c3ccc4[nH]c(C(N)=O)nc4c3)CC1)O2
Query string: Sort ascending by IC50. # answer = labels listed in requested order
Result string: c, a, b
(c: 16 nM, a: 111 nM, b: 505 nM)

###

test_name: Clearance in rat at 1 mg/kg, iv administered with methylcellulose
Type: ADME, organism-based
Parameters: dose 1 mg/kg, route intravenous
protocol_conditions: in vivo
observed_property: clearance (mL/min/kg)
Please give a number only; it is taken to be in mL/min/kg.

Query string: Returns the measured clearance for the input compound. Input: `Cc1n[nH]c2c(C)cc(C(=O)N3CCC4(CC3)CC(=O)c3c(ccnc3OC(C)C)O4)cc12`
Result string: 31

###

Here we list compounds with their recorded IC50 when tested on Acetyl-CoA carboxylase 1 (Rattus norvegicus, UniProt P11497).
observed_property: IC50 (µM)

Consider the worked cases shown below.
> print(dat)
                              line.notation  unit.abbreviation  test.result
1  Cc1noc(C)c1-c1ccc2c(c1)C(=O)CC1(CCN(C(=O)c3cc(C)c4[nH]ncc4c3)CC1)O2                 µM        0.013
2  CCc1cc(C(=O)N2CCC3(CC2)CC(=O)c2c(OC)cccc2O3)cc2cn[nH]c12                 µM        0.102

[A] Cc1n[nH]c2ccc(C(=O)N3CCC4(CC3)CC(=O)c3ncccc3O4)cc12
[B] Cc1cc(-c2ccc3c(c2)C(=O)CC2(CCN(C(=O)c4cc(C)c5[nH]ncc5c4)CC2)O3)n[nH]1
Query string: Please let me know which one, A or B , has a lower measured IC50 value. # answer = label of selected item
Result string: B
(B: 0.018 µM, A: 0.766 µM)

[A] Cc1ccc2cc(CC3CCN(C(=O)c4cccc5cn[nH]c45)CC3)ccc2n1
[B] Cc1ccc2c(n1)C(=O)CC1(CCN(C(=O)c3cc(C)c4[nH]ncc4c3)CC1)O2
[C] COc1nc(C)cc2c1C(=O)CC1(CCN(C(=O)c3cc(C)c4[nH]ncc4c3)CC1)O2
Query string: Arrange these compounds by their IC50, starting with the largest number. # answer = labels listed in requested order
Result string: A, B, C
(A: 3.38 µM, B: 0.366 µM, C: 0.034 µM)

###

test_name: Half life in rat at 5 mg/kg, po
Format: ADME, organism-based
Design: dose 5 mg/kg, route oral
protocol_conditions: in vivo
observed_property: half-life (h)

> print(dat)
                              line.notation  observed.property  test.result
1  Cc1ccc2cc(CC3CCN(C(=O)c4cccc5cn[nH]c45)CC3)ccc2n1          half-life          1.7
2  Cc1ccc2cc(CC3CCN(C(=O)c4cccc(-c5cc[nH]n5)c4)CC3)ccc2n1          half-life          1.8

###

study_target: Acetyl-CoA carboxylase 2 (Homo sapiens, UniProt O00763)
Sequence (O00763 whole entry): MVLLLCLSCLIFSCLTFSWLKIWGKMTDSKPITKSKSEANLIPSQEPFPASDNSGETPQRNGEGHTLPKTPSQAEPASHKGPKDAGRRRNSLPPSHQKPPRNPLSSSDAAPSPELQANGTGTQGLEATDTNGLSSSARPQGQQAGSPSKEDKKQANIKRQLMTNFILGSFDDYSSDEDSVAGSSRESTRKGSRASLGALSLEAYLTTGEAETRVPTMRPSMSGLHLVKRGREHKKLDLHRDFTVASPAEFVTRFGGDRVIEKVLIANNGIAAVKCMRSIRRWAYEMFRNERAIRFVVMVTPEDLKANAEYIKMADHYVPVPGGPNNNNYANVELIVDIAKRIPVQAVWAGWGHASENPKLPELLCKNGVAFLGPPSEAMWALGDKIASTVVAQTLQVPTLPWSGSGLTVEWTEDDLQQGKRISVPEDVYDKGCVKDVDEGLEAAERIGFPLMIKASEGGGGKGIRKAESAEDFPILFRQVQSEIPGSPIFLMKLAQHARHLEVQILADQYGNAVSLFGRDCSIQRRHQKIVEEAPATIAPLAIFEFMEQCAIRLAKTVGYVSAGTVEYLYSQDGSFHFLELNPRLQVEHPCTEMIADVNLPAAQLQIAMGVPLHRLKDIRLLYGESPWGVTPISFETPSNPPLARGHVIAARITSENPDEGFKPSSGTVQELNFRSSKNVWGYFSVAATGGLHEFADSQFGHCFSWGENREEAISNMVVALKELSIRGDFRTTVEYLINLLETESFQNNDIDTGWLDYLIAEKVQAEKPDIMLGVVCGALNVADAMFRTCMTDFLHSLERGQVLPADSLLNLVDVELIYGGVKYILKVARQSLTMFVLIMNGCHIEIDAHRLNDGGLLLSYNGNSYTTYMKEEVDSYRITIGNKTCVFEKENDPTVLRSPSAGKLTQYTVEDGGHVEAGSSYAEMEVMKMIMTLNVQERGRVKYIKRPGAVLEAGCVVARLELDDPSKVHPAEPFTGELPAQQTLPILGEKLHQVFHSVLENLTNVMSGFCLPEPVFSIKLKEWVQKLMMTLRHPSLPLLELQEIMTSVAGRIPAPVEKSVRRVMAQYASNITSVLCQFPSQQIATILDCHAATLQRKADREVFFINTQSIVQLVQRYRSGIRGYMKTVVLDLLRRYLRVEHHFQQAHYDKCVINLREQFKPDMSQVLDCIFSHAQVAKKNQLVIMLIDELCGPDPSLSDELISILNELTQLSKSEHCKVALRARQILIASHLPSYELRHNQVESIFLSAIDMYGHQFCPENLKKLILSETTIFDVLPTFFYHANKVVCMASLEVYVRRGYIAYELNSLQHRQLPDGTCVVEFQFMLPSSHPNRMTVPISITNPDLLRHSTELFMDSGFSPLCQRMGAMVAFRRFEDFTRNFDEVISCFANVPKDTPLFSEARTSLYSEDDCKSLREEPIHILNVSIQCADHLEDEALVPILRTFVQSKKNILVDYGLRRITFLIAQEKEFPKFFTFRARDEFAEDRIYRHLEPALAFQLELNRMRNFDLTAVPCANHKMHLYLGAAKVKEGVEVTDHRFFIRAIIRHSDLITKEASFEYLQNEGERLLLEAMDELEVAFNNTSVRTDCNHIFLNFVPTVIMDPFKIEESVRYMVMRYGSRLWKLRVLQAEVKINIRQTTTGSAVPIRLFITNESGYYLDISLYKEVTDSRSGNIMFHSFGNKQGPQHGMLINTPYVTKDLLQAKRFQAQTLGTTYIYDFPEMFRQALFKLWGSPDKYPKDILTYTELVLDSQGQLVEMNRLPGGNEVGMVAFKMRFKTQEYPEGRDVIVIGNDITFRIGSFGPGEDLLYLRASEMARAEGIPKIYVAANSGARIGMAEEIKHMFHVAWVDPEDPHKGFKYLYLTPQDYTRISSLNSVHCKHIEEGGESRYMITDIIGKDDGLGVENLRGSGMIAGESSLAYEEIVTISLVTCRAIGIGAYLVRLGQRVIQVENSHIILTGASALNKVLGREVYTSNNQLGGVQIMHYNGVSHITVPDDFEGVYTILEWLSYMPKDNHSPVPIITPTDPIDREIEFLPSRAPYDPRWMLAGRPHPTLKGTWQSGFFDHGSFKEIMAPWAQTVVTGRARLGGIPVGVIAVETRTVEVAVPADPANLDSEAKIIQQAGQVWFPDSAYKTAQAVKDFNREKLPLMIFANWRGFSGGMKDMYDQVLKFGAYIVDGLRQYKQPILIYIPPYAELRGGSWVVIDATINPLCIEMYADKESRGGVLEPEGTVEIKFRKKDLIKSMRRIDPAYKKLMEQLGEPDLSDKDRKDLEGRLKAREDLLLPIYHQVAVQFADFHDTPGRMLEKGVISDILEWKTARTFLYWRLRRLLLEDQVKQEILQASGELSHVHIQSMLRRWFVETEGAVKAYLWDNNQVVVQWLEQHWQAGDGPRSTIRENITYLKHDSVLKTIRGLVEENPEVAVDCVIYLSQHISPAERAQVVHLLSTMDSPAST
test_name: Inhibition of human recombinant ACC2 expressed in CHO cells after 1 hr by fluorescence reader
pIC50: −log10 of the molar value.
observed_property: pIC50

Consider the worked cases shown below.
> print(dat)
                              line.notation  observed.property  test.result
1  Cc1cc(C(=O)N2CCC3(CC2)CC(=O)c2cc(-c4cc[nH]n4)ccc2O3)cc2cn[nH]c12              pIC50         8.35
2  Cc1cc(-c2ccc3c(c2)C(=O)CC2(CCN(C(=O)c4cc(C)c5[nH]ncc5c4)CC2)O3)n[nH]1              pIC50         8.12

[a] Cc1cc(C(=O)N2CCC3(CC2)CC(=O)c2cc(-c4ccn(C)n4)ccc2O3)cc2cn[nH]c12
[b] COc1nc(C)cc2c1C(=O)CC1(CCN(C(=O)c3cc(C)c4[nH]ncc4c3)CC1)O2
Query string: Please let me know which one, a or b , has a lower measured pIC50 value. # answer = label of selected item
Result string: b
